- METHOD SUMMARY: ABTS free radicals scavenging assay
- RECORDED CONDITIONS: read-out: IC50 ABTS free radicals scavenging
EXPERIMENTAL READOUT: pIC50
For clarity, pIC50 is expressed as the negative log10 of concentration in mol/L.

Examples with answers:
C[C@](C=O)(c1ccccc1)[C@@H]1CC(=O)N(c2ccccc2)C1=O
3.30
O=CC1([C@@H]2CC(=O)N(c3ccccc3)C2=O)CCCCC1
3.48

Please examine the following record next.
Consider the compound shown here: O=C1O[C@H]([C@@H](O)CO)C(O)=C1O [Ascorbic acid (Std.), ascorbic acid, reference compound] What is its recorded pIC50?
4.07

====

- STUDY TARGET: α-glucosidase from Saccharomyces cerevisiae (Saccharomyces cerevisiae, UniProt P53341)
- Sequence (P53341 whole entry): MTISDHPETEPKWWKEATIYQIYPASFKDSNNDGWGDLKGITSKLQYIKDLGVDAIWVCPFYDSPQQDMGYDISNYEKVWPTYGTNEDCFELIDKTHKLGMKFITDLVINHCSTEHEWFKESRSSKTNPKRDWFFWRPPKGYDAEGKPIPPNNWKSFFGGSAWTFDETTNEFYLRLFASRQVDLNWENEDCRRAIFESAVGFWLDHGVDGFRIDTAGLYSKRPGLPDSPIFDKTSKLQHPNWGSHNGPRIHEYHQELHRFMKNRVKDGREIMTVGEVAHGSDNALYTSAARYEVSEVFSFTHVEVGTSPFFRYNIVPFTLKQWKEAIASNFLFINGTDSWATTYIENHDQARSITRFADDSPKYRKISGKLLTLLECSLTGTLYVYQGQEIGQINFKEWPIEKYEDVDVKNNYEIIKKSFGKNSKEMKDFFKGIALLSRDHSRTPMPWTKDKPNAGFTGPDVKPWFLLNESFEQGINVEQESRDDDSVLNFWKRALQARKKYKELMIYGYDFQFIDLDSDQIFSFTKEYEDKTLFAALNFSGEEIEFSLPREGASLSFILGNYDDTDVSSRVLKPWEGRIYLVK
EXPERIMENTAL READOUT: IC50 (µM)
Provide the reading as a plain figure in µM.

C[C@](C=O)(c1ccccc1)[C@@H]1CC(=O)N(c2ccccc2)C1=O
472

Please examine the following record next.
Consider the compound shown here: `O=CC1([C@@H]2CC(=O)N(c3ccccc3)C2=O)CCCCC1` What is its recorded IC50?
158

====

Items are presented alongside their recorded IC50.
- STUDY TARGET: BChE (lyophilized equine serum) (Equus caballus, UniProt P81908)
- Sequence (P81908 whole entry): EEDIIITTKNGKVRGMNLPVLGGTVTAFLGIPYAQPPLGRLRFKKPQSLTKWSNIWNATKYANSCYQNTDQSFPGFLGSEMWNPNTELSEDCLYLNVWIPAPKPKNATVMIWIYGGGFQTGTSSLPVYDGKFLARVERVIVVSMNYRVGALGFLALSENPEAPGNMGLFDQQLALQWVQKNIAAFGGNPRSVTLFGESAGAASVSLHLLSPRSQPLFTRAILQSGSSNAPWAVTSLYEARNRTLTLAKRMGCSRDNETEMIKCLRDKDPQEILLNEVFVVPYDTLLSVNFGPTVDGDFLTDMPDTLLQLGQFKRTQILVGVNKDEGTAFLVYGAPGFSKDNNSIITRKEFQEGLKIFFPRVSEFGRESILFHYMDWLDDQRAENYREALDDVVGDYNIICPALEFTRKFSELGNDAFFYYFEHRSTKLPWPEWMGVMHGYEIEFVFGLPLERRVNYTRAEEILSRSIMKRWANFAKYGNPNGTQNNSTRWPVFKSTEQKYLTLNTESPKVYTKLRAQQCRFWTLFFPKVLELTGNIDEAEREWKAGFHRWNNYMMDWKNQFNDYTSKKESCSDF
- METHOD SUMMARY: Butyrylcholinesterase inhibition, Ellman's assay
Provide the reading as a plain figure in µM.

C[C@](C=O)(c1ccccc1)[C@@H]1CC(=O)N(c2ccccc2)C1=O
358

Consider the compound shown here: `O=CC1([C@@H]2CC(=O)N(c3ccccc3)C2=O)CCCCC1` What is its recorded IC50?
277

====

Record: pIC50 reported on AChE electric eel (Electrophorus electricus).
Sequence (O42275 24-633): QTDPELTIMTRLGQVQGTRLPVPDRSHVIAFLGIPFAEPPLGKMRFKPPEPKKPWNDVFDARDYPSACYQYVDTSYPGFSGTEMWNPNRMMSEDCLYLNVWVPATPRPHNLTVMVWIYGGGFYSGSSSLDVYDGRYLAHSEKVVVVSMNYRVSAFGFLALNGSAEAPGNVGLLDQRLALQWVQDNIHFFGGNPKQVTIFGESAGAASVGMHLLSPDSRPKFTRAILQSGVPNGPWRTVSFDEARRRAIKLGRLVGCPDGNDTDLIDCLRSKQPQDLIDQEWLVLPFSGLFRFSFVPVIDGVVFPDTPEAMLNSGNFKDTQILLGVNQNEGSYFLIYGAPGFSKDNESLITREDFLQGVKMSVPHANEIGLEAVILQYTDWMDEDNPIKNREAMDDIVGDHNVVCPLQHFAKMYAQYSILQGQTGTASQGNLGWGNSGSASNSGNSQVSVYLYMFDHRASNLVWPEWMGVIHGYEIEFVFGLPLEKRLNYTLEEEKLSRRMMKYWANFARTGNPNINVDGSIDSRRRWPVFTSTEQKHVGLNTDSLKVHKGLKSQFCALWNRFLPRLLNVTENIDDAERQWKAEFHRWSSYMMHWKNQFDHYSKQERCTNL
For clarity, pIC50 is expressed as the negative log10 of concentration in mol/L.

C[C@](C=O)(c1ccccc1)[C@@H]1CC(=O)N(c2ccccc2)C1=O
3.37

Fill in the recorded pIC50 for this compound, with AChE electric eel (Electrophorus electricus) as test system: `O=CC1([C@@H]2CC(=O)N(c3ccccc3)C2=O)CCCCC1`
3.46

Values from paper PMC7285812
